// values below are reported IC50
# Target Under Test: BRD4 BD2 (Homo sapiens, UniProt O60885)
# Experiment Description: AlphaScreen binding assay, BRD4 Bromodomain 2

Answered examples (3):
CC(=O)N1c2ccc(-c3cnn(CC(=O)N4CCC4)c3)cc2N(C(=O)C2CC2)C[C@@H]1C	50 to 500 nM
CC(=O)N1c2ccc(-c3cnn(C4CCNCC4)c3)cc2N(c2nn(C)c3cnccc23)C[C@@H]1C	< 50 nM
CC(=O)N1c2ccccc2N(C(=O)c2cccs2)C[C@@H]1C	> 500 nM

*Q* Query (molecule): CC(=O)N1c2ccc(-c3ccc(C(F)(F)F)cc3)cc2N(C(=O)c2ccco2)C[C@@H]1C ; field requested: IC50
*A* 50 to 500 nM

*Q* Follow-up item: CC(=O)N1c2ccc(-c3cnn(C4CS(=O)(=O)C4)c3)cc2N(C(=O)OC2CCC2)C[C@@H]1C
*A* 50 to 500 nM

*Q* Follow-up item: CC(=O)N1c2ccc(-c3cnn(C4COC4)c3)cc2N(C(=O)OC2CCCCC2)C[C@@H]1C
*A* 50 to 500 nM

*Q* Follow-up item: COC(=O)N1c2ccc(-c3cnn(C4CCNCC4)c3)cc2N(C(=O)Oc2ccccn2)C[C@@H]1C
*A* 50 to 500 nM

*Q* Follow-up item: CCS(=O)(=O)Nc1cccc(-c2ccc3c(c2)N(C(=O)OC(C)C)C[C@H](C)N3C(C)=O)c1
*A* 50 to 500 nM

*Q* Follow-up item: CC(=O)N1c2ccc(-c3ccc(S(=O)(=O)n4cccn4)cc3)cc2N(C(=O)OC2CCOCC2)C[C@@H]1C
*A* 50 to 500 nM

*Q* Follow-up item: CC(=O)N1c2ccc(-c3cnn(CCS(C)(=O)=O)c3)cc2N(C(=O)Oc2cccnc2)C[C@@H]1C
*A* 50 to 500 nM

*Q* Follow-up item: CC(=O)N1c2ccc(-c3cnn(CC(C)(C)F)c3)cc2N(C(=O)C2CC2)C[C@@H]1C
*A* 50 to 500 nM

*Q* Follow-up item: CC(=O)N1c2ccc(-c3cccc(S(=O)(=O)N(C)C)c3)cc2N(C(=O)OC2CCOCC2)C[C@@H]1C
*A* 50 to 500 nM

*Q* Follow-up item: CC(=O)N1c2ccc(-c3cnn(CCO)c3)cc2N(C(=O)Oc2cccnc2)C[C@@H]1C
*A* 50 to 500 nM

*Q* Follow-up item: CC(=O)N1c2ccc(-c3cnn(Cc4cccnc4)c3)cc2N(C(=O)OC(C)C)C[C@@H]1C
*A* < 50 nM

*Q* Follow-up item: CCCS(=O)(=O)c1ccc(-c2ccc3c(c2)N(C(=O)C2CC2)C[C@H](C)N3C(C)=O)cc1
*A* 50 to 500 nM

*Q* Follow-up item: CC(=O)N1c2ccc(-c3ccc(-c4ncc[nH]4)cc3)cc2N(C(=O)c2ccco2)CC1C (stereo not drawn)
*A* < 50 nM

*Q* Follow-up item: COC(=O)N1c2ccc(-c3ccc(N4CCS(=O)(=O)CC4)cc3)cc2N(C(=O)C2CC2)C[C@@H]1C
*A* 50 to 500 nM

*Q* Follow-up item: CC(=O)N1c2ccc(-c3ccc(C(=O)NCCO)cc3)cc2N(C(=O)c2ccco2)C[C@@H]1C
*A* < 50 nM

*Q* Follow-up item: CC(=O)N1c2ccc(-c3ccc(NS(C)(=O)=O)cc3)cc2N(C(=O)Oc2ccc(F)cc2)C[C@@H]1C
*A* < 50 nM

*Q* Follow-up item: CC(=O)N1c2ccc(-c3cnn(CCS(C)(=O)=O)c3)cc2N(C(=O)OC(C)C)C[C@@H]1C
*A* 50 to 500 nM

*Q* Follow-up item: COc1ccc(-c2ccc3c(c2)N(C(=O)c2ccco2)C[C@H](C)N3C(C)=O)cc1
*A* < 50 nM

*Q* Follow-up item: CC(=O)N1c2ccc(-c3cnn(CC4CCC4)c3)cc2N(C(=O)C2CC2)C[C@@H]1C
*A* 50 to 500 nM

*Q* Follow-up item: CC(=O)N1c2ccc(-c3cnn(C)n3)cc2N(C(=O)c2ccco2)C[C@@H]1C
*A* > 500 nM

*Q* Follow-up item: CC(=O)N1c2ccc(-c3cnn(C4COC4)c3)cc2N(C(=O)OCC(C)(C)F)C[C@@H]1C
*A* < 50 nM
